Biological target: dihydrolipoamide acyltransferase (DlaT) (Mycobacterium tuberculosis)
Sequence (P9WIS7 1-553): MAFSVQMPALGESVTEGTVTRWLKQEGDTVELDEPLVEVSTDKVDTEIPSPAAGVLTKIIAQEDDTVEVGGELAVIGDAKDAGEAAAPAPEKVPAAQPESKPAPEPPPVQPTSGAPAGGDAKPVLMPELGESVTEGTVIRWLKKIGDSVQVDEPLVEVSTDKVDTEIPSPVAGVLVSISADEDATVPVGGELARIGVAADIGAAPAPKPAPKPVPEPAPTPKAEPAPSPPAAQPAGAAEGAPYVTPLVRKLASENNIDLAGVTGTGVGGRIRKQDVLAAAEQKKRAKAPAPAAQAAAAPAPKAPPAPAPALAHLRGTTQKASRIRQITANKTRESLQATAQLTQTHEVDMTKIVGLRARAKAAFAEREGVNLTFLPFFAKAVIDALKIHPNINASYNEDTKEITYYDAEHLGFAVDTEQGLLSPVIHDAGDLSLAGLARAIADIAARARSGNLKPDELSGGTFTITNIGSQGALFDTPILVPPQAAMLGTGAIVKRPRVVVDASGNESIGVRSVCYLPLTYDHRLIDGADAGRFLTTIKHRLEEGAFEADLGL
Assay: DlaT inhibition (Dlat IC50); DTNB peroxidase assay with Lpd, DlaT and AhpD
Format: biochemical
Conditions: Dlat IC50 category
Each entry below carries its recorded IC50.

Here are 3 compounds together with their reported answers.
{"Compound": "COc1ccc(-c2ccc(C=C3SC(=S)N(CCCCCC(=O)O)C3=O)o2)cc1Cl", "IC50": "11 to 40 µM"}
{"Compound": "O=C(O)C(Cc1ccc(O)c(O)c1)N1C(=O)C(=Cc2ccc(-c3ccc(Cl)cc3)o2)SC1=S (stereo not shown)", "IC50": "11 to 40 µM"}
{"Compound": "O=C(O)c1ccccc1NN1C(=O)C(=Cc2ccc(-c3ccc(OCc4ccccc4)cc3)o2)SC1=S", "IC50": "11 to 40 µM"}

Would you mind telling me what IC50 value was observed for O=C(O)CN1C(=O)C(=Cc2ccc(-c3ccc(Cl)cc3Cl)o2)SC1=S ? < 10 µM

Would you mind telling me what IC50 value was observed for O=C(O)C(Cc1ccc(O)cc1)N1C(=O)C(=Cc2ccc(-c3ccccc3Cl)o2)SC1=S (stereo not shown) ? < 10 µM

Would you mind telling me what IC50 value was observed for CC(=O)Nc1ccc(-c2ccc(C=C3SC(=S)N(C4CCCC(C(=O)O)C4)C3=O)o2)cc1 (stereo not shown) ? < 10 µM

---

target: dihydrolipoamide acyltransferase (DlaT) (Mycobacterium tuberculosis); test: DlaT inhibition (Dlat IC50); DTNB peroxidase assay with Lpd, DlaT and AhpD; format: biochemical; conditions: Table 1, Compounds A1 to A294; read-out: Dlat IC50 category
pIC50: −log10 of the molar value.
Metric: pIC50

Provide value of pIC50 for this record tested with dihydrolipoamide acyltransferase (DlaT) (Mycobacterium tuberculosis): Cc1ccc(-c2ccc(C=C3SC(=S)N(c4cccc(C(=O)O)c4)C3=O)o2)c(F)c1 4.40 to 4.96

Provide value of pIC50 for this record tested with dihydrolipoamide acyltransferase (DlaT) (Mycobacterium tuberculosis): CSc1ccccc1-c1ccc(C=C2SC(=S)N(c3ccc(F)c(C(=O)O)c3)C2=O)o1 > 5.00

Provide value of pIC50 for this record tested with dihydrolipoamide acyltransferase (DlaT) (Mycobacterium tuberculosis): COc1ccccc1-c1ccc(C=C2SC(=S)N(c3cc(C(=O)O)ccc3C)C2=O)o1 > 5.00

Provide value of pIC50 for this record tested with dihydrolipoamide acyltransferase (DlaT) (Mycobacterium tuberculosis): Cc1cccc(C)c1-c1ccc(C=C2SC(=S)N(c3cccc(C(=O)O)c3)C2=O)o1 [Compound A171] 4.40 to 4.96

---

biological target: dihydrolipoamide acyltransferase (DlaT) (Mycobacterium tuberculosis, UniProt P9WIS7); test: DlaT inhibition (Dlat IC50); DTNB peroxidase assay with Lpd, DlaT and AhpD; type: biochemical; details: Dlat IC50 category, Table 13, Compounds M1 to M4
pIC50: −log10 of the molar value.
Metric: pIC50

Here are 3 compounds together with their reported answers.
{"Smi": "N#Cc1c(F)cccc1-c1ccc(C=C2SC(=S)N(c3cncc(C(=O)O)c3)C2=O)o1", "pIC50": "4.40 to 4.96"}
{"Smi": "O=C(O)c1cncc(N2C(=O)C(=Cc3ccc(-c4ccccc4Cl)o3)SC2=S)c1", "pIC50": "> 5.00"}
{"Smi": "O=C(O)c1cncc(N2C(=O)C(=Cc3ccc(-c4cccc(C(F)(F)F)c4)o3)SC2=S)c1", "pIC50": "> 5.00"}

Provide value of pIC50 for this record tested with dihydrolipoamide acyltransferase (DlaT) (Mycobacterium tuberculosis, UniProt P9WIS7): CC(C)(C)c1ccc(-c2ccc(C=C3SC(=S)N(c4cncc(C(=O)O)c4)C3=O)o2)cc1 > 5.00

---

Each entry below carries its recorded pIC50.
Target: dihydrolipoamide acyltransferase (DlaT) (Mycobacterium tuberculosis)
Sequence (P9WIS7 1-553): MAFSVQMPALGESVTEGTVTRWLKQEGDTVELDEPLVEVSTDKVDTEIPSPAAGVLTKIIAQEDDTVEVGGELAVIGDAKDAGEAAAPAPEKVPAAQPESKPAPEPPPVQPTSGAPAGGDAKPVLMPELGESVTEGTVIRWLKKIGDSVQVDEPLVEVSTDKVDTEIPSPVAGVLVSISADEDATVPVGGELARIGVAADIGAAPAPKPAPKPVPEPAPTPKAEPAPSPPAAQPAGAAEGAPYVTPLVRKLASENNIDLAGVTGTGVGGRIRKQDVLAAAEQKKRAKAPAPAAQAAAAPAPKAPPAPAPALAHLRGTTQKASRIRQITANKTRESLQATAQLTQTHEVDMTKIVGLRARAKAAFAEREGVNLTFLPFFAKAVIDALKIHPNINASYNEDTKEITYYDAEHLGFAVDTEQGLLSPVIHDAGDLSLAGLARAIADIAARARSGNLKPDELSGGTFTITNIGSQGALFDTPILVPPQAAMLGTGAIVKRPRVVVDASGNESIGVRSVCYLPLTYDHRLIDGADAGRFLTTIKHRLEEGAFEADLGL
Assay: DlaT inhibition (Dlat IC50); DTNB peroxidase assay with Lpd, DlaT and AhpD
Format: biochemical
Conditions: Dlat IC50 category
pIC50: −log10 of the molar value.

Here are 5 compounds together with their reported answers.
{"Compound": "O=C(O)c1ccccc1NN1C(=O)C(=Cc2ccc(-c3ccc4[nH]ccc4c3)o2)SC1=S", "Target": "dihydrolipoamide acyltransferase (DlaT) (Mycobacterium tuberculosis)", "Metric": "pIC50", "Measured": "> 5.00"}
{"Compound": "O=C(O)c1cccc(N2C(=O)C(=Cc3ccc(-c4cc5ccccc5s4)o3)SC2=S)c1", "Target": "dihydrolipoamide acyltransferase (DlaT) (Mycobacterium tuberculosis)", "Metric": "pIC50", "Measured": "> 5.00"}
{"Compound": "CNS(=O)(=O)c1ccc(-c2ccc(C=C3SC(=S)N(C4CCC(C(=O)O)CC4)C3=O)o2)cc1 (stereo not shown)", "Target": "dihydrolipoamide acyltransferase (DlaT) (Mycobacterium tuberculosis)", "Metric": "pIC50", "Measured": "> 5.00"}
{"Compound": "Cc1ccc(-c2ccc(C=C3SC(=S)N(Nc4ccccc4C(=O)O)C3=O)cc2)cc1", "Target": "dihydrolipoamide acyltransferase (DlaT) (Mycobacterium tuberculosis)", "Metric": "pIC50", "Measured": "4.40 to 4.96"}
{"Compound": "CN(C)S(=O)(=O)c1ccc(-c2ccc(C=C3SC(=S)N(C4CCCC(C(=O)O)C4)C3=O)o2)cc1 (stereo not shown)", "Target": "dihydrolipoamide acyltransferase (DlaT) (Mycobacterium tuberculosis)", "Metric": "pIC50", "Measured": "4.10 to 4.39"}

Would you mind telling me what pIC50 value was observed for CC(C)(C)c1ccc(-c2ccc(C=C3SC(=S)N(C4CCCC(C(=O)O)C4)C3=O)o2)cc1 (stereo not shown) ? > 5.00

Would you mind telling me what pIC50 value was observed for CC(=O)c1ccc(-c2ccc(C=C3SC(=S)N(C4CCCC(C(=O)O)C4)C3=O)o2)cc1 (stereo not shown) ? > 5.00

---

target: dihydrolipoamide acyltransferase (DlaT) (Mycobacterium tuberculosis, UniProt P9WIS7); test: DlaT inhibition (Dlat IC50); DTNB peroxidase assay with Lpd, DlaT and AhpD; assay type: biochemical; settings: Table 1, Compounds A1 to A294; read-out: Dlat IC50 category
Metric: IC50

{"Compound": "O=C(O)c1ccc(F)c(N2C(=O)C(=Cc3ccc(-c4ccccc4Oc4ccccc4)o3)SC2=S)c1", "IC50": "< 10 µM"}
{"Compound": "COc1ccc(C)cc1-c1ccc(C=C2SC(=S)N(c3cc(C(=O)O)ccc3F)C2=O)o1", "IC50": "< 10 µM"}
{"Compound": "CC(=O)c1ccc(-c2ccc(C=C3SC(=S)N(c4cc(C(=O)O)ccc4F)C3=O)o2)cc1", "IC50": "< 10 µM"}
{"Compound": "CC(=O)NS(=O)(=O)c1cccc(N2C(=O)C(=Cc3ccc(-c4cccc(C(F)(F)F)c4)o3)SC2=S)c1", "IC50": "< 10 µM"}
{"Compound": "O=C(O)c1cc(N2C(=O)C(=Cc3ccc(-c4ccccc4Cl)o3)SC2=S)ccc1Cl", "IC50": "< 10 µM"}
{"Compound": "CS(=O)(=O)c1ccc(-c2ccc(C=C3SC(=S)N(c4cc(C(=O)O)ccc4F)C3=O)o2)cc1", "IC50": "11 to 40 µM"}
{"Compound": "COc1ccc(-c2ccc(C=C3SC(=S)N(c4cc(C(=O)O)ccc4F)C3=O)o2)cc1F", "IC50": "< 10 µM"}
{"Compound": "O=C(O)c1cc(N2C(=O)C(=Cc3ccc(-c4ccc(Cl)cc4Cl)o3)SC2=S)ccc1O", "IC50": "11 to 40 µM"}
{"Compound": "Cc1cccc(C)c1-c1ccc(C=C2SC(=S)N(c3cccc(C(=O)O)c3)C2=O)o1 [Compound A198]", "IC50": "< 10 µM"}
{"Compound": "O=C(O)c1ccc(Cl)c(N2C(=O)C(=Cc3ccc(-c4c(Cl)cccc4Cl)o3)SC2=S)c1", "IC50": "< 10 µM"}

Would you mind telling me what IC50 value was observed for CC(C)c1ccc(-c2ccc(C=C3SC(=S)N(c4cccc(C(=O)O)c4)C3=O)o2)cc1 ? < 10 µM

Would you mind telling me what IC50 value was observed for O=C1C(=Cc2ccc(-c3cccc(C(F)(F)F)c3)o2)SC(=S)N1c1ccc(O)cc1 ? < 10 µM

Would you mind telling me what IC50 value was observed for O=C(O)c1ccc(N2C(=O)C(=Cc3ccc(-c4ccc(Cl)c(Cl)c4)o3)SC2=S)cc1 ? < 10 µM

Would you mind telling me what IC50 value was observed for CCCc1ccc(-c2ccc(C=C3SC(=S)N(c4ccc(F)c(C(=O)O)c4)C3=O)o2)cc1 ? < 10 µM

Would you mind telling me what IC50 value was observed for O=C(O)CCc1cccc(N2C(=O)C(=Cc3ccc(-c4ccc(Cl)cc4)o3)SC2=S)c1 ? < 10 µM

Would you mind telling me what IC50 value was observed for O=C(O)c1cccc(N2C(=O)C(=Cc3ccc(-c4cc(C(F)(F)F)ccc4Cl)o3)SC2=S)c1 ? < 10 µM

Would you mind telling me what IC50 value was observed for NS(=O)(=O)c1ccc(-c2ccc(C=C3SC(=S)N(c4cccc(C(=O)O)c4)C3=O)o2)cc1 ? 11 to 40 µM

Would you mind telling me what IC50 value was observed for Cc1cc(C)c(-c2ccc(C=C3SC(=S)N(c4cc(C(=O)O)ccc4F)C3=O)o2)c(C)c1 ? < 10 µM
